# ASSAY TEXT: TP_TRANSPORTER: drug resistance (paclitaxel) in HCT15/CL02 cells
pIC50: −log10 of the molar value.
VALUE KIND: pIC50

SMILES CODE: COc1ccc(CCN(C)CCC[C@@]2(C#N)CCc3c2ccc(OC)c3OC)cc1OC
ASSAY RESULT: 5.52
--
SMILES CODE: COc1ccc(CCN(C)CCC[C@]2(C#N)CCc3c2ccc(OC)c3OC)cc1OC
ASSAY RESULT: 5.51

---

# ASSAY TEXT: TP_TRANSPORTER: drug resistance (paclitaxel) in MES-SA/DX5 cells
VALUE KIND: IC50 (µM)

SMILES CODE: COc1ccc(CCN(C)CCC[C@@]2(C#N)CCc3c2ccc(OC)c3OC)cc1OC
IC50 (µM): 6.63
//
SMILES CODE: COc1ccc(CCN(C)CCC[C@]2(C#N)CCc3c2ccc(OC)c3OC)cc1OC
IC50 (µM): 7.65

Where these numbers come from: BindingDB's records for doi:10.1097/00001813-200302000-00012
